Values were extracted from PubChem BioAssay AID1878.

# TARGET_SYSTEM: Dual specificity protein phosphatase 3 (Homo sapiens) (UniProt P51452)
# Sequence (P51452 whole entry, looked up): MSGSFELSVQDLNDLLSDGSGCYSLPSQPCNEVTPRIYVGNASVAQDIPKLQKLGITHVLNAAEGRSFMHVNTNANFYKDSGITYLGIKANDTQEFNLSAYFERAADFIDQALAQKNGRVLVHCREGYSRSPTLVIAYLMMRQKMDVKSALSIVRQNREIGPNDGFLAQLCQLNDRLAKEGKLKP
# PROTOCOL_DESCRIPTION: VHR1 phosphatase inhibitors, biochemical (AID 1878)
# ASSAY_CONDITIONS: recombinant VHR phosphatase, fluorogenic substrate; at 13.3 µM; stronger effect = higher value
Out of some 1,000 compounds screened, about 200 (20%) were called active. These entries were drawn from the full list. Potency and affinity values are given separately.
Output condition met for inhibition not less than 10%; output condition not met otherwise.

INSERT INTO results (structure_string, qualitative_label) VALUES
  ('Nc1nc(-c2cc(O)ccc2[N+](=O)[O-])cc(-c2ccccc2)c1[N+](=O)[O-]', 'condition met'),
  ('O=c1c2c(-c3cccc([N+](=O)[O-])c3)ccnc2[nH]n1-c1ccccc1', 'condition met'),
  ('O=c1[nH]c2ccccc2nc1/C=C/c1ccc(Cl)cc1', 'condition met'),
  ('O=[N+]([O-])c1cccc(S(=O)(=O)N2CCN(c3ccccn3)CC2)c1', 'condition not met'),
  ('COc1ccc(-c2ccnc3[nH]n(-c4ccccc4)c(=O)c23)cc1', 'condition not met');

====

# TARGET_SYSTEM: Dual specificity protein phosphatase 3 (Homo sapiens)
# PROTOCOL_DESCRIPTION: VHR1 phosphatase inhibitors, biochemical (AID 1878)
# ASSAY_CONDITIONS: recombinant VHR phosphatase, fluorogenic substrate; at 13.3 µM; stronger effect = higher value
Screen size: about 1,000 compounds; about 200 (20%) were called active. Only a sample is shown. Entries with a potency or affinity are not part of this list.
Output true for inhibition not less than 50%; output false otherwise.

INSERT INTO results (compound, qualitative_label) VALUES
  ('Cc1ccc(-c2nn3c(C)nnc3s2)cc1NC(=O)c1ccc(-c2ccc(Cl)cc2Cl)o1', 'true'),
  ('CCN(C(=O)c1ccc(S(=O)(=O)N(C)C)cc1)C(C)C(=O)Nc1ccc(C)cc1 (stereo unspecified)', 'false'),
  ('O=C(O)C1Nc2c(O)cc(Cl)c([N+](=O)[O-])c2C2C=CCC12 (stereo unspecified)', 'true'),
  ('CC1Cc2cc(-c3csc(N)n3)ccc2O1 (stereo unspecified)', 'false'),
  ('CC(C)OCCCNC(=S)Nc1ccc(S(N)(=O)=O)cc1', 'true'),
  ('Brc1ccc(C2=Nc3ccccc3C(c3ccncc3)=NN2)cc1', 'true');

====

# TARGET_SYSTEM: Dual specificity protein phosphatase 3 (Homo sapiens) (UniProt P51452)
# PROTOCOL_DESCRIPTION: VHR1 phosphatase inhibitors, biochemical (AID 1878)
# ASSAY_CONDITIONS: recombinant VHR phosphatase, fluorogenic substrate; at 13.3 µM; stronger effect = higher value
The campaign covered roughly 1,000 compounds. About 200 (20%) were called active. Only a sample is shown. Entries with a potency or affinity are not part of this list.
Catalogue of inhibition readings, one per entry.
ENDPOINT_NAME: inhibition (%)

INSERT INTO measurements (molecule, target_system, readout_units, recorded_number) VALUES
  ('CCn1c2ccccc2c2n[nH]c(=S)nc21', 'Dual specificity protein phosphatase 3 (Homo sapiens) (UniProt P51452)', '%', -2.6),
  ('COc1ccc(C2NN=C(c3ccc(C)cc3)S2)cc1 (stereo unspecified)', 'Dual specificity protein phosphatase 3 (Homo sapiens) (UniProt P51452)', '%', -9.5),
  ('COc1ccccc1N(CC(O)CN1CCC(C)CC1)S(=O)(=O)c1ccccc1 (stereo unspecified)', 'Dual specificity protein phosphatase 3 (Homo sapiens) (UniProt P51452)', '%', -7.2),
  ('O=C(O)CCCN1C(=O)c2ccccc2Sc2ncccc21', 'Dual specificity protein phosphatase 3 (Homo sapiens) (UniProt P51452)', '%', 2.1),
  ('CC#CC#Cc1cccc(=O)o1', 'Dual specificity protein phosphatase 3 (Homo sapiens) (UniProt P51452)', '%', 42.9),
  ('CCC(=O)N1CCN(c2ccc(NC(=O)c3ccc(N4CCOCC4)c([N+](=O)[O-])c3)cc2)CC1', 'Dual specificity protein phosphatase 3 (Homo sapiens) (UniProt P51452)', '%', -6.9),
  ('COc1cccc(C(N)=O)c1OC(=O)Cc1ccccc1F', 'Dual specificity protein phosphatase 3 (Homo sapiens) (UniProt P51452)', '%', -0.1),
  ('O=C(N/N=C/c1cc(Br)cc([N+](=O)[O-])c1O)c1ccc(NC(=O)c2ccc(F)cc2)cc1', 'Dual specificity protein phosphatase 3 (Homo sapiens) (UniProt P51452)', '%', 95.6),
  ('CC1CCN(S(=O)(=O)c2ccc3c(c2)N(CC(=O)NCCCN2C(C)CCCC2C)C(=O)CO3)CC1 (stereo unspecified)', 'Dual specificity protein phosphatase 3 (Homo sapiens) (UniProt P51452)', '%', -11.5),
  ('S=C(c1ccc(OCc2ccccc2)cc1)N1CCCC1', 'Dual specificity protein phosphatase 3 (Homo sapiens) (UniProt P51452)', '%', 7.3),
  ('COc1ccc(NC(=S)NCCCN2CCCC2=O)c(OC)c1', 'Dual specificity protein phosphatase 3 (Homo sapiens) (UniProt P51452)', '%', 47.4),
  ('CN(C(=O)CSc1cn(CC(=O)N2CCOCC2)c2ccccc12)c1ccccc1', 'Dual specificity protein phosphatase 3 (Homo sapiens) (UniProt P51452)', '%', -6.1),
  ('O=C(COc1ccccc1)Nc1ccncc1Cl', 'Dual specificity protein phosphatase 3 (Homo sapiens) (UniProt P51452)', '%', 8.7),
  ('CC1CCN(CCNC(=O)C2CCCN(c3ncnc4c3nc3n4CCCCC3)C2)CC1 (stereo unspecified)', 'Dual specificity protein phosphatase 3 (Homo sapiens) (UniProt P51452)', '%', 7.1),
  ('Cc1ccc(NC(=O)CNC(=O)N2CC(=O)Nc3ccccc32)cc1F', 'Dual specificity protein phosphatase 3 (Homo sapiens) (UniProt P51452)', '%', 15.4),
  ('CCn1c(SCC(=O)N2CCOCC2)nc2c(c1=O)SC(C)C2 (stereo unspecified)', 'Dual specificity protein phosphatase 3 (Homo sapiens) (UniProt P51452)', '%', -2.5),
  ('COC(=O)c1cc(S(=O)(=O)N2CCCCC2)c[nH]1', 'Dual specificity protein phosphatase 3 (Homo sapiens) (UniProt P51452)', '%', 4.2),
  ('Cc1cccc(CC(=O)Nc2cccnc2)c1', 'Dual specificity protein phosphatase 3 (Homo sapiens) (UniProt P51452)', '%', -5.3),
  ('CN(C)c1ccc(N2C(=NC(=O)C3CCCO3)SC3CS(=O)(=O)CC32)cc1 (stereo unspecified)', 'Dual specificity protein phosphatase 3 (Homo sapiens) (UniProt P51452)', '%', 10.7),
  ('O=C(NCc1ccc(Cl)cc1)Nc1ccc(F)cc1', 'Dual specificity protein phosphatase 3 (Homo sapiens) (UniProt P51452)', '%', 0.7),
  ('CC1CCN(CCc2nc3cc(NC(=O)C(C)C)ccc3n2C)CC1', 'Dual specificity protein phosphatase 3 (Homo sapiens) (UniProt P51452)', '%', 9.3),
  ('N#CC(c1cccnc1)N1CCOCC1 (stereo unspecified)', 'Dual specificity protein phosphatase 3 (Homo sapiens) (UniProt P51452)', '%', 5.3),
  ('COc1cc(OC)nc(Oc2ccc(N)c(C)c2)n1', 'Dual specificity protein phosphatase 3 (Homo sapiens) (UniProt P51452)', '%', 17.4),
  ('O=[N+]([O-])c1ccc(N2N=C(c3ccccc3)CC2c2ccccc2O)cc1 (stereo unspecified)', 'Dual specificity protein phosphatase 3 (Homo sapiens) (UniProt P51452)', '%', 6),
  ('COC(=O)C1(C)NC(c2ccc(Cl)cc2)C2C(=O)N(c3ccccc3)C(=O)C21 (stereo unspecified)', 'Dual specificity protein phosphatase 3 (Homo sapiens) (UniProt P51452)', '%', -6.5),
  ('O=C(CCCN1C(=O)C(c2ccccc2)Oc2cccnc21)Nc1ccccc1Cl (stereo unspecified)', 'Dual specificity protein phosphatase 3 (Homo sapiens) (UniProt P51452)', '%', 4.6),
  ('CCCN1C2CCCC1CC(NC(=O)c1ccc(C(C)(C)C)cc1)C2 (stereo unspecified)', 'Dual specificity protein phosphatase 3 (Homo sapiens) (UniProt P51452)', '%', -2.3),
  ('Nn1c(SCC(=O)Nc2ccccc2F)nnc1C1CCCCC1', 'Dual specificity protein phosphatase 3 (Homo sapiens) (UniProt P51452)', '%', 18.2),
  ('NC(=O)C(c1ccc(F)cc1)c1ccc(C(=O)c2ccccc2)cc1 (stereo unspecified)', 'Dual specificity protein phosphatase 3 (Homo sapiens) (UniProt P51452)', '%', 18.3),
  ('COc1ccccc1N1CCN(C2CCCN(C(=O)CCc3cnccn3)C2)CC1 (stereo unspecified)', 'Dual specificity protein phosphatase 3 (Homo sapiens) (UniProt P51452)', '%', -1.8),
  ('COc1ccc(-c2nn(CCC#N)cc2C(=O)Nc2ccccc2Cl)cc1', 'Dual specificity protein phosphatase 3 (Homo sapiens) (UniProt P51452)', '%', 2.2),
  ('O=C(Nc1ccc(N2CCCCC2)cc1)c1ccc([N+](=O)[O-])o1', 'Dual specificity protein phosphatase 3 (Homo sapiens) (UniProt P51452)', '%', 14.3),
  ('Cc1ccc(-c2nc3ccccc3s2)cc1NC(=O)c1cc(-n2cnnc2)ccc1Cl', 'Dual specificity protein phosphatase 3 (Homo sapiens) (UniProt P51452)', '%', 63.4),
  ('Cc1ccc(Oc2coc3cc(O)ccc3c2=O)cc1', 'Dual specificity protein phosphatase 3 (Homo sapiens) (UniProt P51452)', '%', 1),
  ('O=C(O)CCC(=O)N1N=C(c2ccccc2)CC1c1ccc(Br)cc1 (stereo unspecified)', 'Dual specificity protein phosphatase 3 (Homo sapiens) (UniProt P51452)', '%', -7.5),
  ('COc1cc(/C=N/Nc2ccc([N+](=O)[O-])cn2)cc(OC)c1O', 'Dual specificity protein phosphatase 3 (Homo sapiens) (UniProt P51452)', '%', -5.7),
  ('Cc1cc(C)c(S(=O)(=O)c2cccc(Br)c2C)c(=O)[nH]1', 'Dual specificity protein phosphatase 3 (Homo sapiens) (UniProt P51452)', '%', 9.5),
  ('O=C(NC(=S)Nc1ccccn1)c1ccc(-c2ccccc2)cc1', 'Dual specificity protein phosphatase 3 (Homo sapiens) (UniProt P51452)', '%', 0.9),
  ('CN(CC1CCCN(CCc2ccc(F)cc2)C1)C(=O)CCC(N)=O (stereo unspecified)', 'Dual specificity protein phosphatase 3 (Homo sapiens) (UniProt P51452)', '%', -4.8),
  ('CC(C(=O)NCCCc1ccccc1)n1cccc1C(=O)c1ccccc1 (stereo unspecified)', 'Dual specificity protein phosphatase 3 (Homo sapiens) (UniProt P51452)', '%', 17.1),
  ('CC(=O)c1cccc(OCc2cc(C(=O)N3CC4C[C@@H]5CC3C[C@H](C4)C5)no2)c1', 'Dual specificity protein phosphatase 3 (Homo sapiens) (UniProt P51452)', '%', 21.3),
  ('CCC1CN(C(=O)NCc2ccc(F)cc2)c2ccccc2O1 (stereo unspecified)', 'Dual specificity protein phosphatase 3 (Homo sapiens) (UniProt P51452)', '%', 7.8),
  ('CCc1nn(CC(=O)N2CCN(c3cc(C)ccc3C)CC2)c(=O)c2cc3occc3n12', 'Dual specificity protein phosphatase 3 (Homo sapiens) (UniProt P51452)', '%', 4.7),
  ('CNC1(C(N)=O)CCNCC1', 'Dual specificity protein phosphatase 3 (Homo sapiens) (UniProt P51452)', '%', -8.1),
  ('CCOC(=O)c1ccc(N/N=C/c2cc(Br)cc([N+](=O)[O-])c2O)cc1', 'Dual specificity protein phosphatase 3 (Homo sapiens) (UniProt P51452)', '%', 27.8),
  ('CN(C)c1ccc(NS(=O)(=O)c2cc3c4c(c2)CC(=O)N4CCC3)cc1', 'Dual specificity protein phosphatase 3 (Homo sapiens) (UniProt P51452)', '%', -8);
